What IC50 was measured for each of the following?
# assay_target: c-Met (His-tagged recombinant human Met (Amino acids 974-ends)) (Homo sapiens, UniProt P08581)
# Construct: His-tagged recombinant human Met (Amino acids 974-ends); His
# Sequence (P08581 974-1390 limits assumed): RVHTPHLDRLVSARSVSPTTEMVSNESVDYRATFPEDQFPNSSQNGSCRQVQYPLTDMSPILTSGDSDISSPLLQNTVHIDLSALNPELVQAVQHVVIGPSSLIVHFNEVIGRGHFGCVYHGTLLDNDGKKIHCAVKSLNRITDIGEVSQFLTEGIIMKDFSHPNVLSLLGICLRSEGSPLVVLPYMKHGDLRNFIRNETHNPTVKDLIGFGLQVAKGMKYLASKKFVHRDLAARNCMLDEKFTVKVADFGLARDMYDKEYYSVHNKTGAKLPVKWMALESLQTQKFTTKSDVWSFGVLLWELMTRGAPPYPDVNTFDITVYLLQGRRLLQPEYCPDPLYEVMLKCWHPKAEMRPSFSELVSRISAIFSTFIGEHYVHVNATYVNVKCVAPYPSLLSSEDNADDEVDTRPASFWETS
# test_protocol: c-Met kinase assay (ELISA)
# condition_context: 50 pM c-Met, 5 μM ATP, 20 min
Give bare numbers, in nM.

COc1cc2c(Oc3ccc(NC(=O)c4cn(-c5ccccc5F)c5ccccc5c4=O)cc3F)ccnc2cc1OCCCN1CCCC1 ... 296
COc1cc2c(Oc3ccc(NC(=O)c4nn(-c5ccc(F)cc5)c5ccccc5c4=O)cc3F)cnnc2cc1OCCCN1CCN(C)CC1 ... 1550
COc1cc2c(Oc3ccc(NC(=O)c4nn(-c5ccccc5Br)c5ccccc5c4=O)cc3F)ccnc2cc1OCCCN1CCN(C)CC1 ... 1430
COc1cc2c(Oc3ccc(NC(=O)c4cn(-c5ccccc5F)c5ccccc5c4=O)cc3F)ccnc2cc1OCCCN1CCC(C)CC1 ... 568

Shifting focus to the compound that follows.
Request: Look up IC50 of COc1cc2c(Oc3ccc(NC(=O)c4cn(-c5ccccc5F)c5ccccc5c4=O)cc3F)ccnc2cc1OCCCN1CCCCC1 and report it.
Response: 869

* * *

# assay_target: c-Met (His-tagged recombinant human Met (Amino acids 974-ends)) (Homo sapiens, UniProt P08581)
# Construct: His-tagged recombinant human Met (Amino acids 974-ends); His
# test_protocol: c-Met kinase assay (ELISA)
# condition_context: 50 pM c-Met, 5 μM ATP, 20 min
What IC50 was measured for each of the following?
Answers are plain numbers, in nM.

COc1cc2c(Oc3ccc(NC(=O)c4nn(-c5c(Cl)cccc5Cl)c5ccccc5c4=O)cc3F)ccnc2cc1OCCCN1CCN(C)CC1 ... 132
COc1cc2c(Oc3ccc(NC(=O)c4nn(-c5ccc(Br)cc5)c5ccccc5c4=O)cc3F)ccnc2cc1OCCCN1CCOCC1 ... 1330

Shifting focus to the compound that follows.
Request: Look up IC50 of COc1cc2c(Oc3ccc(NC(=O)c4nn(-c5ccccc5C(F)(F)F)c5ccccc5c4=O)cc3F)ccnc2cc1OCCCN1CCCC1.Cl.Cl [Example 1, dihydrochloride] and report it.
Response: 62.5

* * *

# assay_target: c-Met (His-tagged recombinant human Met (Amino acids 974-ends)) (Homo sapiens, UniProt P08581)
# Construct: His-tagged recombinant human Met (Amino acids 974-ends); His
# test_protocol: c-Met kinase assay (ELISA)
# condition_context: 50 pM c-Met, 5 μM ATP, 20 min
experimental_endpoint: IC50
Please state the number and follow it with the unit.

COc1cc2c(Oc3ccc(NC(=O)c4nn(-c5ccc(Cl)cc5Cl)c5ccccc5c4=O)cc3F)ccnc2cc1OCCCN1CCN(C)CC1 ... 924 nM
COc1cc2c(Oc3ccc(NC(=O)c4nn(-c5ccc(Cl)cc5Cl)c5ccccc5c4=O)cc3F)cnnc2cc1OCCCN1CCCC1 ... 959 nM
COc1cc2c(Oc3ccc(NC(=O)c4nn(-c5ccc(F)cc5Br)c5ccccc5c4=O)cc3F)ccnc2cc1OCCCN1CCN(C)CC1 ... 1530 nM
COc1cc2c(Oc3ccc(NC(=O)c4nn(-c5ccccc5F)c5ccccc5c4=O)cc3F)ccnc2cc1OCCCN1CCCC1 ... 2070 nM
COc1cc2c(Oc3ccc(NC(=O)c4nn(-c5ccc(F)cc5)c5ccccc5c4=O)cc3F)ccnc2cc1OCCCN1CCN(C)CC1 ... 1410 nM

Shifting focus to the compound that follows.
Request: Look up IC50 of COc1cc2c(Oc3ccc(NC(=O)c4cn(-c5ccccc5C(F)(F)F)c5ccccc5c4=O)cc3F)ccnc2cc1OCCCN1CCOCC1.Cl.Cl [Example 48, dihydrochloride] and report it.
Response: 1350 nM

* * *

# Tested on: U87MG (Human malignant glioblastoma cells)
# test_protocol: In vitro anti-tumor cellular activity (MTT), U87MG
# Type: cell-based
# condition_context: Homo sapiens, U-87 MG, 72 h, read-out: U87MG IC50
What IC50 was measured for each of the following?
Please state the number and follow it with the unit.

Consider the worked cases shown below.
COc1cc2c(Oc3ccc(NC(=O)c4nn(-c5c(Cl)cccc5Cl)c5ccccc5c4=O)cc3F)ccnc2cc1OCCCN1CCCCC1 ... 0.74 µg/mL
COc1cc2c(Oc3ccc(NC(=O)c4nn(-c5c(Cl)cccc5Cl)c5ccccc5c4=O)cc3F)ccnc2cc1OCCCN1CCC(C)CC1 ... 0.27 µg/mL

Request: Look up IC50 of COc1cc2c(Oc3ccc(NC(=O)c4nn(-c5ccc(Cl)cc5Cl)c5ccccc5c4=O)cc3F)ccnc2cc1OCCCN1CCN(C)CC1 and report it.
Response: 0.77 µg/mL

* * *

# System: U87MG (Human malignant glioblastoma cells)
# test_protocol: In vitro anti-tumor cellular activity (MTT), U87MG
# Assay type: cell-based
# condition_context: Homo sapiens, U-87 MG, 72 h, read-out: U87MG IC50
What IC50 was measured for each of the following?
One number for each entry, in µg/mL.

Consider the worked cases shown below.
COc1cc2c(Oc3ccc(NC(=O)c4nn(-c5ccccc5Cl)c5ccccc5c4=O)cc3F)ccnc2cc1OCCCN1CCOCC1 ... 1.4
COc1cc2c(Oc3ccc(NC(=O)c4nn(-c5ccccc5OC(F)(F)F)c5ccccc5c4=O)cc3F)ccnc2cc1OCCCN1CCOCC1 ... 2.1
COc1cc2c(Oc3ccc(NC(=O)c4nn(-c5ccc(Cl)cc5Cl)c5ccccc5c4=O)cc3F)ccnc2cc1OCCCN1CCC(C)CC1 ... 1.6
COc1cc2c(Oc3ccc(NC(=O)c4nn(-c5ccc(Cl)cc5)c5ccccc5c4=O)cc3F)ccnc2cc1OCCCN1CCCCC1 ... 0.86
COc1cc2c(Oc3ccc(NC(=O)c4nn(-c5ccc(Br)cc5)c5ccccc5c4=O)cc3F)ccnc2cc1OCCCN1CCOCC1 ... 1.8

Answer for every listed entry: what is its IC50? The entries follow.
1. COc1cc2c(Oc3ccc(NC(=O)c4nn(-c5ccccc5Br)c5ccccc5c4=O)cc3F)ccnc2cc1OCCCN1CCOCC1
2. COc1cc2c(Oc3ccc(NC(=O)c4nn(-c5cccc(F)c5)c5ccccc5c4=O)cc3F)ccnc2cc1OCCCN1CCCCC1
3. COc1cc2c(Oc3ccc(NC(=O)c4nn(-c5c(Cl)cccc5Cl)c5ccccc5c4=O)cc3F)ccnc2cc1OCCCN1CCN(C)CC1

Response:
0.65
1.2
0.65

Answer for every listed entry: what is its IC50? The entries follow.
1. COc1cc2c(Oc3ccc(NC(=O)c4cn(-c5ccccc5Cl)c5ccccc5c4=O)cc3F)ccnc2cc1OCCCN1CCCC1
2. COc1cc2c(Oc3ccc(NC(=O)c4nn(-c5ccc(Cl)cc5Cl)c5ccccc5c4=O)cc3F)ccnc2cc1OCCCN1CCCCC1
3. COc1cc2c(Oc3ccc(NC(=O)c4nn(-c5ccc(Cl)cc5Cl)c5ccccc5c4=O)cc3F)cnnc2cc1OCCCN1CCCC1
4. COc1cc2c(Oc3ccc(NC(=O)c4nn(-c5ccc(Br)cc5)c5ccccc5c4=O)cc3F)ccnc2cc1OCCCN1CCCCC1.Cl.Cl

Response:
[0.18, 0.6, 2.1, 1.2]

Request: Look up IC50 of COc1cc2c(Oc3ccc(NC(=O)c4nn(-c5c(Cl)cccc5Cl)c5ccccc5c4=O)cc3F)ccnc2cc1OCCCN1CCCC1 and report it.
Response: 0.26

* * *

What IC50 was measured for each of the following?
# Test system: SMMC-7721 (hepatoma cell)
# test_protocol: In vitro anti-tumor cellular activity (MTT), SMMC-7721
# Assay type: cell-based, human
# condition_context: Homo sapiens, SMMC-7721, 72 h, read-out: SMMC-7721 IC50
One number for each entry, in µg/mL.

Consider the worked cases shown below.
COc1cc2c(Oc3ccc(NC(=O)c4cn(-c5ccccc5Cl)c5ccccc5c4=O)cc3F)ccnc2cc1OCCCN1CCCC1 ... 0.53
COc1cc2c(Oc3ccc(NC(=O)c4nn(-c5ccccc5OC(F)(F)F)c5ccccc5c4=O)cc3F)ccnc2cc1OCCCN1CCOCC1 ... 1.5

Shifting focus to the molecule that follows.
Request: Look up IC50 of COc1cc2c(Oc3ccc(NC(=O)c4nn(-c5ccc(Br)cc5)c5ccccc5c4=O)cc3F)ccnc2cc1OCCCN1CCCCC1.Cl.Cl and report it.
Response: 0.63

* * *

# Tested on: H460 (human lung cancer cell)
# test_protocol: In vitro anti-tumor cellular activity (MTT), H460
# Assay type: cell-based
# condition_context: Homo sapiens, NCI-H460, 72 h, read-out: H460 IC50
experimental_endpoint: IC50 (µg/mL)
Give bare numbers, in µg/mL.

Consider the worked cases shown below.
COc1cc2c(Oc3ccc(NC(=O)c4nn(-c5ccc(Br)cc5)c5ccccc5c4=O)cc3F)ccnc2cc1OCCCN1CCOCC1 ... 2.3
COc1cc2c(Oc3ccc(NC(=O)c4nn(-c5ccc(Cl)cc5Cl)c5ccccc5c4=O)cc3F)ccnc2cc1OCCCN1CCC(C)CC1 ... 2.3

Shifting focus to the molecule that follows.
Request: Look up IC50 of COc1cc2c(Oc3ccc(NC(=O)c4nn(-c5ccccc5Cl)c5ccccc5c4=O)cc3F)ccnc2cc1OCCCN1CCOCC1 and report it.
Response: 2.2
